Data provenance is patent US20230012273A1.

Recorded measurements of Kd, one per entry
Molecular target: T1, cynoSIRPα (XP_015313155), Extracellular Domain + His-Tag (cynomolgus monkey)
T1 construct: also called CySIRPα XP_015313155; not shown: His-Tag
T1 chain: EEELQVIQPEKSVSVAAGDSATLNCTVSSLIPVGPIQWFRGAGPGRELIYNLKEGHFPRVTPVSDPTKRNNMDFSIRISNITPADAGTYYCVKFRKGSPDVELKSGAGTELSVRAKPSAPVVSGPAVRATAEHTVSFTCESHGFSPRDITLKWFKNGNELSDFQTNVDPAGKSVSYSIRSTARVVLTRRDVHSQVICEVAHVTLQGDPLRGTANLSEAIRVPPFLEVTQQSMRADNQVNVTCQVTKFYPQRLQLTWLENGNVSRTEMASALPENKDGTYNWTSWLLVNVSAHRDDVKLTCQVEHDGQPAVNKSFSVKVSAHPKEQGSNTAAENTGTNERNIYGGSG
Experiment: SPR, antibody captured on Protein A/G, ECD-His analyte, steady-state fit
Give the number; nM is assumed, so skip it.

Sample records with Kd:
So for Antibody A9 (antibody, human IgG1, kappa, L234A L235A, V domains shown) VH: EVQLVESGGGLVQPGGSLRLSCAASGFTLSSYDMHWVRQAPGKGLEWVSAIGTAGDTYYTGSVKGRFTISRENAKNSLYLQMNSLRADDTAVYYCVRGGVWDDAFDIWGQGTMVTVSS VL: DIQMTQSPSSLSASVGDRVTITCRASQDINNYLAWFQQKPGKAPKSLIYTASSLHSGVPSKFSGSGSGTDFTLTISSLQPEDFATYYCQQYVSYPYTFGQGTKLEIKR , the logged Kd turned out to be 174

So for Antibody A5 (antibody, human IgG1, kappa, L234A L235A, V domains shown) VH: EVQLVESGGGLVQPGGSLRLSCAASGFTLSSYDMHWVRQAPGKGLEWVSAIGTAGDTYYTGSVKGRFTISRENAKNSLYLQMNSLRASDTAVYYCVRGGVWDDAFDIWGQGTMVTVSS VL: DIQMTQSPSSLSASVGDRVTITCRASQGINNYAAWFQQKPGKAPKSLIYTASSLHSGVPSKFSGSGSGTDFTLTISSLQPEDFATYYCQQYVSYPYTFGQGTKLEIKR , the logged Kd turned out to be 415

Now turn to the next binder.
So for Antibody A13 (antibody, human IgG1, kappa, L234A L235A, V domains shown) VH: EVQLVESGGGLVQPGGSLRLSCAASGFTLSSYDMHWVRQAPGKGLEWVSAIGTAGDTYYTGSVKGRFTISRENAKNSLYLQMNSLRAADTAVYYCVRGGVWDDAFDIWGQGTMVTVSS VL: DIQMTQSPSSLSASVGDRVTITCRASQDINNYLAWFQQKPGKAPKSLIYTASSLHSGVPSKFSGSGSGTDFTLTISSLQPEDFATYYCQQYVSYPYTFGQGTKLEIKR , the logged Kd turned out to be 177
